- System: S. aureus GC4536 (Smith MP -In Vivo)
- Test description: MIC broth microdilution, S. aureus GC4536 (Smith MP -In Vivo)
- Assay type: cell-based
- Condition details: MHBII, 18-22 hours at 35° C.
Property measured: minimum inhibitory concentration (MIC)
Answer with a number only.

Example entries begin here.
[[record]]
mol_smiles = "CN(C)c1cc(NC(=O)CN(O)C2CCCCC2)c(O)c2c1C[C@H]1C[C@H]3[C@H](N(C)C)C(O)=C(C(N)=O)C(=O)[C@@]3(O)C(O)=C1C2=O"
property_measured = "minimum inhibitory concentration (MIC)"
observed_result = 4

[[record]]
mol_smiles = "CN(C)c1cc(NC(=O)CNOC(C)(C)C)c(O)c2c1C[C@H]1C[C@H]3[C@H](N(C)C)C(O)=C(C(N)=O)C(=O)[C@@]3(O)C(O)=C1C2=O"
property_measured = "minimum inhibitory concentration (MIC)"
observed_result = 1

[[record]]
mol_smiles = "CN(C)c1cc(NC(=O)CN(O)C(C)(C)C)c(O)c2c1C[C@H]1C[C@H]3[C@H](N(C)C)C(O)=C(C(N)=O)C(=O)[C@@]3(O)C(O)=C1C2=O"
property_measured = "minimum inhibitory concentration (MIC)"
observed_result = 4

[[record]]
mol_smiles = "CONCC(=O)Nc1cc(N(C)C)c2c(c1O)C(=O)C1=C(O)[C@]3(O)C(=O)C(C(N)=O)=C(O)[C@@H](N(C)C)[C@@H]3C[C@@H]1C2"
property_measured = "minimum inhibitory concentration (MIC)"
observed_result = 1

[[record]]
mol_smiles = "CN(C)[C@@H]1C(O)=C(C(N)=O)C(=O)[C@@]2(O)C(O)=C3C(=O)c4c(O)c(NC(=O)CN5CCCCO5)cc(I)c4C[C@H]3C[C@@H]12"
property_measured = "minimum inhibitory concentration (MIC)"
observed_result = 4


input: Endpoint output: minimum inhibitory concentration (MIC) of CN(C)c1cc(NC(=O)CN2CCCCO2)c(O)c2c1C[C@H]1C[C@H]3[C@H](N(C)C)C(O)=C(C(N)=O)C(=O)[C@@]3(O)C(O)=C1C2=O . Value?
output: 2

input: Endpoint output: minimum inhibitory concentration (MIC) of CN(C)[C@@H]1C(O)=C(C(N)=O)C(=O)[C@@]2(O)C(O)=C3C(=O)c4c(O)c(NC(=O)CN5CCCCO5)cc(-c5cccs5)c4C[C@H]3C[C@@H]12 . Value?
output: 4

====

- Tested on: Staphylococcal aureus Smith M P
- Test description: In vivo antibacterial evaluation, acute lethal infection in mice
- Condition details: Mus musculus; single oral dose 30 minutes after intraperitoneal challenge; female CD-1 mice; 7 day survival ratios, 3 tests pooled; read-out: SOD* ED50
Property measured: ED50 (mg/kg)
Supply the numeric figure in mg/kg, leaving out any unit text.

[[record]]
mol_smiles = "CC(C)N(O)CC(=O)Nc1cc(N(C)C)c2c(c1O)C(=O)C1=C(O)[C@]3(O)C(=O)C(C(N)=O)=C(O)[C@@H](N(C)C)[C@@H]3C[C@@H]1C2"
property_measured = "ED50"
u = "mg/kg"
observed_result = 18

[[record]]
mol_smiles = "CN(C)c1cc(NC(=O)CNOC(C)(C)C)c(O)c2c1C[C@H]1C[C@H]3[C@H](N(C)C)C(O)=C(C(N)=O)C(=O)[C@@]3(O)C(O)=C1C2=O"
property_measured = "ED50"
u = "mg/kg"
observed_result = 1.1

[[record]]
mol_smiles = "CN(C)c1cc(NC(=O)CN(O)C2CCCCC2)c(O)c2c1C[C@H]1C[C@H]3[C@H](N(C)C)C(O)=C(C(N)=O)C(=O)[C@@]3(O)C(O)=C1C2=O"
property_measured = "ED50"
u = "mg/kg"
observed_result = 7.75


Now for the molecule whose ED50 we want.
input: Endpoint output: ED50 of CN(C)c1cc(NC(=O)CN2CCCCO2)c(O)c2c1C[C@H]1C[C@H]3[C@H](N(C)C)C(O)=C(C(N)=O)C(=O)[C@@]3(O)C(O)=C1C2=O . Value?
output: 3.59
